What GI50 was measured for each of the following?
- Test system: HCC827
- PROTOCOL_NOTES: Cytotoxicity against human HCC827 cells assessed as growth inhibition after 72 hrs by calcein-AM dye based fluorescence assay
- Assay type: functional
- MEASUREMENT_SETUP: HCC827, 72 h
One number for each entry, in µM.

In the examples that follow, each entry is paired with its recorded GI50.
[
  {
    "STRUCTURE_SMILES": "N[C@H]1CC[C@H](Nc2nc(Nc3ccc(O)cc3)c3ncn(C4CCCCC4)c3n2)CC1",
    "ASSAYED_TARGET": "HCC827",
    "OBSERVED_RESULT": 32.5
  },
  {
    "STRUCTURE_SMILES": "CC(C)CCn1cnc2c(Nc3ccc(Cl)cc3)nc(N[C@H]3CC[C@H](N)CC3)nc21",
    "ASSAYED_TARGET": "HCC827",
    "OBSERVED_RESULT": 10.2
  },
  {
    "STRUCTURE_SMILES": "CC(C)=CCn1cnc2c(Nc3cccc(Cl)c3)nc(N[C@H]3CC[C@H](N)CC3)nc21",
    "ASSAYED_TARGET": "HCC827",
    "OBSERVED_RESULT": 13.5
  }
]

Here's the next entry for you.
Q: Which measured GI50 value corresponds to CCCCn1cnc2c(Nc3ccccc3)nc(N[C@H]3CC[C@H](N)CC3)nc21 ?
Ans: 9

---

What GI50 was measured for each of the following?
- System: BT-474
- PROTOCOL_NOTES: Cytotoxicity against human BT474 cells assessed as growth inhibition after 72 hrs by calcein-AM dye based fluorescence assay
- Format: functional
- MEASUREMENT_SETUP: BT-474, 72 h
One number for each entry, in µM.

[
  {
    "STRUCTURE_SMILES": "CCCCCCn1cnc2c(Nc3cccc(Cl)c3)nc(N[C@H]3CC[C@H](N)CC3)nc21",
    "GI50, µM": 5.1
  }
]

// each compound listed below needs its GI50
1. CCCCCCn1cnc2c(Nc3ccc(O)cc3)nc(N[C@H]3CC[C@H](N)CC3)nc21
2. CCn1cnc2c(Nc3cccc(Cl)c3)nc(N[C@@H]3CCCC[C@@H]3N)nc21
3. CC(C)CCn1cnc2c(Nc3ccccc3)nc(N[C@H]3CC[C@H](N)CC3)nc21
4. CC(C)CCn1cnc2c(Nc3ccc(Cl)cc3)nc(N[C@H]3CC[C@H](N)CC3)nc21
5. N[C@H]1CC[C@H](Nc2nc(Nc3ccc(Cl)cc3)c3ncn(C4CCCCC4)c3n2)CC1
6. COc1cc(Nc2nc(N[C@H]3CC[C@H](N)CC3)nc3c2ncn3CCC(C)C)cc(OC)c1
7. CC(C)CCn1cnc2c(Nc3ccc(O)cc3)nc(N[C@H]3CC[C@H](N)CC3)nc21
8. CC(C)=CCC/C(C)=C/Cn1cnc2c(Nc3cccc(Cl)c3)nc(N[C@H]3CC[C@H](N)CC3)nc21

Ans:
[7.7, 5.4, 6.4, 5.1, 4.1, 5.9, 7.7, 4.3]

// each compound listed below needs its GI50
1. COc1ccc(Cn2cnc3c(Nc4cccc(Cl)c4)nc(N[C@H]4CC[C@H](N)CC4)nc32)cc1
2. N[C@H]1CC[C@H](Nc2nc(Nc3ccc(O)cc3)c3ncn(C4CCCCC4)c3n2)CC1

Ans:
1. 8.2
2. 27.3

---

- ASSAYED_TARGET: Cyclin-dependent kinase 2/cyclin E1 (Homo sapiens, UniProt P24941)
- PROTOCOL_NOTES: Inhibition of CDK2/cyclin E (unknown origin) expressed in baculovirus infected insect Sf9 cells using histone H1 as substrate in presence of [gamma-33P]ATP
METRIC_NAME: pIC50
Answers are plain numbers, as −log10 of the molar value.

[
  {
    "STRUCTURE_SMILES": "CC(C)CCn1cnc2c(Nc3ccc(Cl)cc3)nc(N[C@H]3CC[C@H](N)CC3)nc21",
    "ASSAYED_TARGET": "Cyclin-dependent kinase 2/cyclin E1 (Homo sapiens, UniProt P24941)",
    "pIC50": 6.50
  },
  {
    "STRUCTURE_SMILES": "CC(C)CCn1cnc2c(NCc3cccc(Cl)c3)nc(N[C@H]3CC[C@H](N)CC3)nc21",
    "ASSAYED_TARGET": "Cyclin-dependent kinase 2/cyclin E1 (Homo sapiens, UniProt P24941)",
    "pIC50": 6.51
  },
  {
    "STRUCTURE_SMILES": "CCCCCCn1cnc2c(Nc3cc(OC)cc(OC)c3)nc(N[C@H]3CC[C@H](N)CC3)nc21",
    "ASSAYED_TARGET": "Cyclin-dependent kinase 2/cyclin E1 (Homo sapiens, UniProt P24941)",
    "pIC50": 6.17
  },
  {
    "STRUCTURE_SMILES": "CC(C)CCn1cnc2c(Nc3cccc(Cl)c3)nc(N[C@H]3CC[C@H](N)CC3)nc21",
    "ASSAYED_TARGET": "Cyclin-dependent kinase 2/cyclin E1 (Homo sapiens, UniProt P24941)",
    "pIC50": 6.56
  },
  {
    "STRUCTURE_SMILES": "CCCCn1cnc2c(Nc3cc(OC)cc(OC)c3)nc(N[C@H]3CC[C@H](N)CC3)nc21",
    "ASSAYED_TARGET": "Cyclin-dependent kinase 2/cyclin E1 (Homo sapiens, UniProt P24941)",
    "pIC50": 6.35
  }
]

// each molecule listed below needs its pIC50
1. CC(C)CCn1cnc2c(Nc3ccc(O)cc3)nc(N[C@H]3CC[C@H](N)CC3)nc21
2. CCn1cnc2c(Nc3cccc(Cl)c3)nc(N[C@@H]3CCCC[C@@H]3N)nc21
3. COc1ccc(Nc2nc(N[C@H]3CC[C@H](N)CC3)nc3c2ncn3CCC(C)C)c(OC)c1
4. CCCCCCn1cnc2c(Nc3ccc(O)cc3)nc(N[C@H]3CC[C@H](N)CC3)nc21
5. CCCCn1cnc2c(Nc3ccccc3)nc(N[C@H]3CC[C@H](N)CC3)nc21

Ans:
[6.31, 7.77, 5.22, 6.31, 6.87]

---

- ASSAYED_TARGET: Platelet-derived growth factor receptor alpha (Homo sapiens, UniProt P16234)
- Sequence (P16234 whole entry, the tested form may be a part): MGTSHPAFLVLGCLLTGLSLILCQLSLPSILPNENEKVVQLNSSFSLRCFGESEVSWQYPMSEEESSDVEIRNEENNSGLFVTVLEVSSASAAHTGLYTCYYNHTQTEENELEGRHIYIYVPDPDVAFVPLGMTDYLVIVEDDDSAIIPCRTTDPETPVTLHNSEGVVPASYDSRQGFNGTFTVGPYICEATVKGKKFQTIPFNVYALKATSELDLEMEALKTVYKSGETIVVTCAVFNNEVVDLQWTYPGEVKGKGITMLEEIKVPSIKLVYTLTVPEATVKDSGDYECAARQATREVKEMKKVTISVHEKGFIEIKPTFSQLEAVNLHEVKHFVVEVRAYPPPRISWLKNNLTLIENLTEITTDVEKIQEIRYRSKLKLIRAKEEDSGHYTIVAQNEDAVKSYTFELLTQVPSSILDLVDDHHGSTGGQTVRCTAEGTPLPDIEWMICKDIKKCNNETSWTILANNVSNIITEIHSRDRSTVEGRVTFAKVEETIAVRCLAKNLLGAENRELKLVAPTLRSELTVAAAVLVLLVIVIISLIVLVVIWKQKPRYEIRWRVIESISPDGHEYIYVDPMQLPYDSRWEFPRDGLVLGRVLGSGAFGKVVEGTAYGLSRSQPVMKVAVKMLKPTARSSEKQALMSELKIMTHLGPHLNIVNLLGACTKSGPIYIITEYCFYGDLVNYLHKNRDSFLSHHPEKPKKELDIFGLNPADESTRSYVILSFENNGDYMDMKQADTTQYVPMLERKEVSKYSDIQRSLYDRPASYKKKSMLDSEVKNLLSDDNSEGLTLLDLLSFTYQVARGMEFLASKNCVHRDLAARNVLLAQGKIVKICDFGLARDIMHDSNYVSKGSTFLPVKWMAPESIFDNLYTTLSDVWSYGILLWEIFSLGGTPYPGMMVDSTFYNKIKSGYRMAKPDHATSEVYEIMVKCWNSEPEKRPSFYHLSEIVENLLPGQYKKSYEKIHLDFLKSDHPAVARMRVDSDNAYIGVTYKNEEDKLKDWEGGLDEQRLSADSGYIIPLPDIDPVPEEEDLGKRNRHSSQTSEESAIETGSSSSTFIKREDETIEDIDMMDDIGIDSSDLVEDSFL
- PROTOCOL_NOTES: Inhibition of recombinant human N-terminal GST-His6 tagged PDGFRalpha (Q551 to L1089 residues) expressed in Sf9 insect cells using poly(Ala,Glu,Lys,Tyr)6:2:5:1 hydrobromide as substrate in presence of [gamma-33P]ATP
What pIC50 was measured for each of the following?
One number for each entry, as −log10 of the molar value.

In the examples that follow, each entry is paired with its recorded pIC50.
[
  {
    "STRUCTURE_SMILES": "CCCCn1cnc2c(Nc3ccc(Cl)cc3)nc(N[C@H]3CC[C@H](N)CC3)nc21",
    "OBSERVED_RESULT": 7.22
  },
  {
    "STRUCTURE_SMILES": "N[C@H]1CC[C@H](Nc2nc(Nc3ccc(O)cc3)c3ncn(C4CCCCC4)c3n2)CC1",
    "OBSERVED_RESULT": 5.91
  },
  {
    "STRUCTURE_SMILES": "CC(C)CCn1cnc2c(Nc3ccc(Cl)cc3)nc(N[C@H]3CC[C@H](N)CC3)nc21",
    "OBSERVED_RESULT": 7.23
  }
]

// each molecule listed below needs its pIC50
1. CCCCn1cnc2c(Nc3ccccc3)nc(N[C@H]3CC[C@H](N)CC3)nc21
2. CCCCCCn1cnc2c(Nc3cc(OC)cc(OC)c3)nc(N[C@H]3CC[C@H](N)CC3)nc21
3. CC(C)=CCC/C(C)=C/Cn1cnc2c(Nc3cccc(Cl)c3)nc(N[C@H]3CC[C@H](N)CC3)nc21
4. CCCCCCn1cnc2c(Nc3cccc(Cl)c3)nc(N[C@H]3CC[C@H](N)CC3)nc21
5. CC(C)CCn1cnc2c(Nc3ccc(O)cc3)nc(N[C@H]3CC[C@H](N)CC3)nc21

Ans:
6.80
5.85
5.32
6.71
6.82

---

What GI50 was measured for each of the following?
- Tested on: BT-474
- PROTOCOL_NOTES: Cytotoxicity against human BT474 cells assessed as growth inhibition after 72 hrs by calcein-AM dye based fluorescence assay
- Assay type: functional
- MEASUREMENT_SETUP: BT-474, 72 h
Give bare numbers, in µM.

In the examples that follow, each entry is paired with its recorded GI50.
[
  {
    "STRUCTURE_SMILES": "CC(C)CCn1cnc2c(Nc3cccc(O)c3)nc(N[C@H]3CC[C@H](N)CC3)nc21",
    "ASSAYED_TARGET": "BT-474",
    "METRIC_NAME": "GI50",
    "OBSERVED_RESULT": 14.7
  },
  {
    "STRUCTURE_SMILES": "CC(C)CCn1cnc2c(NCc3cccc(Cl)c3)nc(N[C@H]3CC[C@H](N)CC3)nc21",
    "ASSAYED_TARGET": "BT-474",
    "METRIC_NAME": "GI50",
    "OBSERVED_RESULT": 6.6
  },
  {
    "STRUCTURE_SMILES": "CC(C)CCn1cnc2c(Nc3cccc(Cl)c3)nc(N[C@H]3CC[C@H](N)CC3)nc21",
    "ASSAYED_TARGET": "BT-474",
    "METRIC_NAME": "GI50",
    "OBSERVED_RESULT": 3.8
  }
]

// each molecule listed below needs its GI50
1. CCCCn1cnc2c(NCc3cccc(Cl)c3)nc(N[C@H]3CC[C@H](N)CC3)nc21
2. CC(C)=CCn1cnc2c(Nc3cccc(Cl)c3)nc(N[C@H]3CC[C@H](N)CC3)nc21
3. CCCCn1cnc2c(Nc3ccccc3)nc(N[C@H]3CC[C@H](N)CC3)nc21
4. CCCCCCn1cnc2c(Nc3ccc(Cl)cc3)nc(N[C@H]3CC[C@H](N)CC3)nc21
5. CCCCn1cnc2c(Nc3ccc(Cl)cc3)nc(N[C@H]3CC[C@H](N)CC3)nc21
6. CCCCCCn1cnc2c(Nc3cc(OC)cc(OC)c3)nc(N[C@H]3CC[C@H](N)CC3)nc21
7. COc1ccc(Nc2nc(N[C@H]3CC[C@H](N)CC3)nc3c2ncn3CCC(C)C)c(OC)c1
8. CCCCn1cnc2c(Nc3cccc(Cl)c3)nc(N[C@H]3CC[C@H](N)CC3)nc21

Ans:
[4.7, 7, 4.9, 5.5, 7.3, 3.7, 7.9, 5.1]
